System: Karpas 422 cells
Assay: Karpas 422 cell viability, CTG (Cell Titre Glo) assay
Format: cell-based, human
Conditions: Homo sapiens; Inhibition of proliferation of Karpas 422 cells (EZH2 Y641N); viability measured Day 4, Day 7 or Day 11, time point of the tabulated values not stated
MEASURED_PARAMETER: IC50

Sample answers from the record:
{"columns": ["MOLECULE", "ASSAY_TARGET", "IC50"],
 "data": [
  ["N#Cc1cn2c(NCc3c(F)ccc4c3CCO4)ncc(-c3ccncn3)c2n1", "Karpas 422 cells", "≤ 0.25 µM"],
  ["Cc1cc(CN(C)C)ncc1-c1cnc(NCc2c(F)ccc3c2CCO3)n2cc(C#N)nc12", "Karpas 422 cells", "≤ 0.25 µM"],
  ["COCCn1cc(-c2cnc(NCc3c(F)ccc4c3CCO4)n3cc(C#N)nc23)cn1", "Karpas 422 cells", "≤ 0.25 µM"],
  ["CN(C)CCc1ccc(-c2cnc(NCc3c(F)ccc4c3CCO4)n3cc(C#N)nc23)cc1", "Karpas 422 cells", "≤ 0.25 µM"],
  ["Cc1cc(CN(C)C)ccc1-c1cnc(NCc2c(F)ccc3c2CCO3)n2cc(C#N)nc12", "Karpas 422 cells", "≤ 0.25 µM"],
  ["Cn1nccc(-c2cnc(NCc3c(F)ccc4c3CCO4)n3cc(C#N)nc23)c1=O", "Karpas 422 cells", "≤ 0.25 µM"],
  ["N#Cc1cn2c(NCc3c(F)ccc4c3CCO4)ncc(-c3ccc(C4CC(=O)N4)cc3)c2n1 (stereo not shown)", "Karpas 422 cells", "≤ 0.25 µM"],
  ["Cc1cc(S(C)(=O)=O)ccc1-c1cnc(NCc2c(F)ccc3c2CCO3)n2cc(C#N)nc12", "Karpas 422 cells", "≤ 0.25 µM"]
]}

# evaluate next
Record `Cc1cn(-c2cnc(NCc3c(F)ccc4c3CCO4)n3cc(C#N)nc23)cn1` . Reported IC50: ≤ 0.25 µM

###

System: PRC2-mediated histone H3 methylation
Assay: Tri-Methyl Histone H3 (Lys 27) Sandwich ELISA in Pfeiffer cells: inhibition of PRC2-mediated histone H3 methylation
Assay type: cell-based, human
Settings: Homo sapiens; Inhibition of EZH2-mediated histone H3 trimethylation; Pfeiffer cells (EZH2 A677G), 96 hours incubation
pIC50: −log10 of the molar value.
MEASURED_PARAMETER: pIC50

Sample answers from the record:
{"columns": ["MOLECULE", "ASSAY_TARGET", "pIC50"],
 "data": [
  ["N#Cc1cn2c(NCc3c(F)ccc4c3CCO4)ncc(-c3ccc(CN4CC(O)C4)cc3)c2n1", "PRC2-mediated histone H3 methylation", "≥ 7.00"],
  ["Cc1nn(C[C@@H](C)O)c(C)c1-c1cnc(NCc2c(F)ccc3c2CCO3)n2cc(C#N)nc12", "PRC2-mediated histone H3 methylation", "6.30 to 7.00"],
  ["Cn1nncc1-c1cnc(NCc2c(F)ccc3c2CCO3)n2cc(C#N)nc12", "PRC2-mediated histone H3 methylation", "≥ 7.00"],
  ["N#Cc1cn2c(NCc3c(F)ccc4c3CCO4)ncc(-c3ccc4c(c3)CCNC4=O)c2n1", "PRC2-mediated histone H3 methylation", "6.30 to 7.00"],
  ["Cn1nc(C2CC2)cc1-c1cnc(NCc2c(F)ccc3c2CCO3)n2cc(C#N)nc12", "PRC2-mediated histone H3 methylation", "6.30 to 7.00"]
]}

Record CC(c1ccc(-c2cnc(NCc3c(F)ccc4c3CCO4)n3cc(C#N)nc23)cc1)N1CCCC1 (centres unmarked) . Reported pIC50: ≥ 7.00

Record `N#Cc1cc(-c2cnc(NCc3c(F)ccc4c3CCO4)n3cc(C#N)nc23)ccn1` . Reported pIC50: 6.30 to 7.00

Record `Cc1ncc(F)cc1-c1cnc(NCc2c(F)ccc3c2CCO3)n2cc(C#N)nc12` . Reported pIC50: 6.30 to 7.00

Record [2H]C1Oc2ccc(F)c(C([2H])([2H])Nc3ncc(-c4ccc(CN(C)C)cc4C)c4nc(C#N)cn34)c2C1[2H] (centres unmarked) . Reported pIC50: 6.30 to 7.00

Record `Cc1c(-c2cnc(NCc3c(F)ccc4c3CCO4)n3cc(C#N)nc23)cnc(CN(C)C)c1F` . Reported pIC50: ≥ 7.00

Record `CN(C)C(=O)c1cc(F)c(-c2cnc(NCc3c(F)ccc4c3CCO4)n3cc(C#N)nc23)cc1F` . Reported pIC50: ≥ 7.00

Record `Cc1ncc(-c2cnc(NCc3c(F)ccc4c3CCO4)n3cc(C#N)nc23)c(C)n1` . Reported pIC50: 6.30 to 7.00

Record `N#Cc1cn2c(NCc3c(F)ccc4c3CCO4)ncc(-c3ccccn3)c2n1` . Reported pIC50: 6.30 to 7.00

Record `COCCOc1ccc(-c2cnc(NCc3c(F)ccc4c3CCO4)n3cc(C#N)nc23)cc1` . Reported pIC50: 6.30 to 7.00

###

Test system: Karpas 422 cells
Assay: Karpas 422 cell viability, CTG (Cell Titre Glo) assay
Type: cell-based, human
Conditions: Homo sapiens; Inhibition of proliferation of Karpas 422 cells (EZH2 Y641N); viability measured Day 4, Day 7 or Day 11, time point of the tabulated values not stated
MEASURED_PARAMETER: IC50

Sample answers from the record:
{"columns": ["MOLECULE", "IC50"],
 "data": [
  ["Cc1cc(CN(C)C)ccc1-c1cnc(NCc2c(F)ccc3c2C(O)CO3)n2cc(C#N)nc12 (stereo not drawn)", "≤ 250 nM"],
  ["CC(c1ccc(-c2cnc(NCc3c(F)ccc4c3CCO4)n3cc(C#N)nc23)cc1)N(C)C (stereo not drawn)", "≤ 250 nM"],
  ["Cc1c(C#N)cccc1-c1cnc(NCc2c(F)ccc3c2CCO3)n2cc(C#N)nc12", "250 to 500 nM"]
]}

Record `CNC(=O)c1cc(-c2cnc(NCc3c(F)ccc4c3CCO4)n3cc(C#N)nc23)n(C)n1` . Reported IC50: ≤ 250 nM

Record `CNCc1ccc(-c2cnc(NCc3c(F)ccc4c3CCO4)n3cc(C#N)nc23)c(C)c1` . Reported IC50: ≤ 250 nM

Record `N#Cc1cn2c(NCc3c(F)ccc4c3CCO4)ncc(-c3ccc4c(c3)CCNC4=O)c2n1` . Reported IC50: 250 to 500 nM

Record `CN(C)C(=O)c1cc(F)c(-c2cnc(NCc3c(F)ccc4c3CCO4)n3cc(C#N)nc23)cc1F` . Reported IC50: ≤ 250 nM

Record `COc1ncc(-c2cnc(NCc3c(F)ccc4c3CCO4)n3cc(C#N)nc23)c(C)n1` . Reported IC50: ≤ 250 nM

Record `CN(C)C1(c2ccc(-c3cnc(NCc4c(F)ccc5c4CCO5)n4cc(C#N)nc34)cc2)CC1` . Reported IC50: ≤ 250 nM

Record `Cc1ccncc1-c1cnc(NCc2c(F)ccc3c2CCO3)n2cc(C#N)nc12` . Reported IC50: ≤ 250 nM

Record `N#Cc1cn2c(NCc3c(F)ccc4c3CCO4)ncc(-c3ccc([C@@H]4CCCN4)cc3)c2n1` . Reported IC50: ≤ 250 nM

###

Tested on: PRC2-mediated histone H3 methylation
Test: Tri-Methyl Histone H3 (Lys 27) Sandwich ELISA in Pfeiffer cells: inhibition of PRC2-mediated histone H3 methylation
Type: cell-based, human
Conditions: Homo sapiens; Inhibition of EZH2-mediated histone H3 trimethylation; Pfeiffer cells (EZH2 A677G), 96 hours incubation
Experimental: The Pfeiffer cell line was established from a […] from a patient having metastatic diffuse large B-cell lymphoma (DLBCL). […] Inhibition of PRC2-mediated histone H3 methylation by compounds of Formula (I) was measured by ELISA using a Tri-Methyl Histone H3 (Lys 27) Sandwich ELISA Kit (Cell Signaling Tech #7866C) in accordance with the manufacturer's instructions. […]
MEASURED_PARAMETER: IC50

Sample answers from the record:
{"columns": ["COMPOUND", "IC50"],
 "data": [
  ["CNCc1ccc(-c2cnc(NCc3c(F)ccc4c3CCO4)n3cc(C#N)nc23)cc1 [Example 185]", "≤ 100 nM"],
  ["Cn1nc(C#N)cc1-c1cnc(NCc2c(F)ccc3c2CCO3)n2cc(C#N)nc12 [Example 212]", "≤ 100 nM"],
  ["CN1CCc2cc(-c3cnc(NCc4c(F)ccc5c4CCO5)n4cc(C#N)nc34)ccc2C1 [Example 159]", "≤ 100 nM"],
  ["Cc1ncccc1-c1cnc(NCc2c(F)ccc3c2CCO3)n2cc(C(=O)O)nc12 [Example 2]", "> 500 nM"],
  ["N#Cc1cn2c(NCc3c(F)ccc4c3CCO4)ncc(-c3ccc(C4CCN4)cc3)c2n1 (stereo not shown) [Example 226]", "100 to 500 nM"]
]}

IC50 value, target or system PRC2-mediated histone H3 methylation, for COCCOc1ccc(-c2cnc(NCc3c(F)ccc4c3CCO4)n3cc(C#N)nc23)c(C)c1 [Example 206] : 100 to 500 nM

IC50 value, target or system PRC2-mediated histone H3 methylation, for N#Cc1cn2c(NCc3c(F)ccc4c3CCO4)ncc(-c3ccccc3C#N)c2n1 [Example 187] : 100 to 500 nM

IC50 value, target or system PRC2-mediated histone H3 methylation, for COC(=O)c1cc(-c2cnc(NCc3c(F)ccc4c3CCO4)n3cc(C#N)nc23)n(C)n1 [Example 169] : 100 to 500 nM

IC50 value, target or system PRC2-mediated histone H3 methylation, for N#Cc1cn2c(NCc3c(F)ccc4c3CCO4)ncc(-c3ccn(CC4CCCO4)n3)c2n1 (stereo not shown) [Example 153] : 100 to 500 nM

IC50 value, target or system PRC2-mediated histone H3 methylation, for N#Cc1cn2c(NCc3c(F)ccc4c3CCO4)ncc(-c3ccccc3)c2n1 [Example 46] : 100 to 500 nM
